MEASURED TARGET: GST-Aq-NF-kB (Amphimedon queenslandica, UniProt A9Y5G7 2-389)
Sequence: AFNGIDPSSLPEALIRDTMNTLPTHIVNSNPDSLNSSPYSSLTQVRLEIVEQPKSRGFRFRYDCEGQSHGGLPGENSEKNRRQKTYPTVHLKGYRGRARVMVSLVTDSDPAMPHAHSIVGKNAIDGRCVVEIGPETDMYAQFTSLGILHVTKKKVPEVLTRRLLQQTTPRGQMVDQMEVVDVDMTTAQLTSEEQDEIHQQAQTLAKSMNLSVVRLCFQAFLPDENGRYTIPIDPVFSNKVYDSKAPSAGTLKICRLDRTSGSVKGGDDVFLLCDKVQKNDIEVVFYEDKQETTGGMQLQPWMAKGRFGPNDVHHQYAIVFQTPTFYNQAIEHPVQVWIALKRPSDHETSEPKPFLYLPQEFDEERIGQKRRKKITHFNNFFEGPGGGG
EXPERIMENTAL PROTOCOL: protein-binding microarray (PBM); PBM: ~300 nM protein, 6 mM HEPES pH 7.8, 80 mM KCl, 0.5 mM EDTA, 0.5 mM EGTA, 6% glycerol, 35 ng/ul poly-dIdC, 1% milk, 1 h, room temperature; high values mean tight binding
TEST SETTINGS: dsDNA, one strand shown
PROPERTY: binding signal (z-score)
Provide the reading as a plain figure in z-score.

Example entries begin here.
The sequence `CCGATTAACATCAGGGTTAGTTGTGATGTTAATCGGGTCTTGATTCGCTTGACGCTGCTG` , when measured on GST-Aq-NF-kB (Amphimedon queenslandica, UniProt A9Y5G7 2-389), yielded binding signal of 1.57

`CCGATTAACATCAAAATCCCCCGTGATGTTAATCGGGTCTTGATTCGCTTGACGCTGCTG` on GST-Aq-NF-kB (Amphimedon queenslandica, UniProt A9Y5G7 2-389) gives binding signal = 7.76

GET /values?item= `CCGATTAACATCAGGGGGGAGTATGATGTTAATCGGGTCTTGATTCGCTTGACGCTGCTG` &system= GST-Aq-NF-kB (Amphimedon queenslandica, UniProt A9Y5G7 2-389) returns binding signal: 4.54

The sequence `CCGATTAACATCAGGGAAAGCACTGATGTTAATCGGGTCTTGATTCGCTTGACGCTGCTG` , tested on GST-Aq-NF-kB (Amphimedon queenslandica, UniProt A9Y5G7 2-389), showed binding signal of 6.5

Fill in: GST-Aq-NF-kB (Amphimedon queenslandica, UniProt A9Y5G7 2-389) binding signal for `CCGATTAACATCAGGGGACTTACTGATGTTAATCGGGTCTTGATTCGCTTGACGCTGCTG` = 5.66

---
Lab note: sequence `CCGATTAACATCAAGTAAATTCCTGATGTTAATCGGGTCTTGATTCGCTTGACGCTGCTG` tested on GST-Aq-NF-kB (Amphimedon queenslandica, UniProt A9Y5G7 2-389); recorded binding signal was 1.35

Lab note: sequence `CCGATTAACATCATTTCCCTTGCTGATGTTAATCGGGTCTTGATTCGCTTGACGCTGCTG` tested on GST-Aq-NF-kB (Amphimedon queenslandica, UniProt A9Y5G7 2-389); recorded binding signal was 3.29

Observed binding signal, GST-Aq-NF-kB (Amphimedon queenslandica, UniProt A9Y5G7 2-389), `CCGATTAACATCACACACCCCCCTGATGTTAATCGGGTCTTGATTCGCTTGACGCTGCTG` : 3.48

Entry `CCGATTAACATCAGGGGATTTTATGATGTTAATCGGGTCTTGATTCGCTTGACGCTGCTG` : binding signal on GST-Aq-NF-kB (Amphimedon queenslandica, UniProt A9Y5G7 2-389) = 8.66

----------
MEASURED TARGET: GST-Ap-NF-kB RHD (Exaiptasia pallida (Aiptasia), UniProt A0A913YAJ5 2-422)
Sequence: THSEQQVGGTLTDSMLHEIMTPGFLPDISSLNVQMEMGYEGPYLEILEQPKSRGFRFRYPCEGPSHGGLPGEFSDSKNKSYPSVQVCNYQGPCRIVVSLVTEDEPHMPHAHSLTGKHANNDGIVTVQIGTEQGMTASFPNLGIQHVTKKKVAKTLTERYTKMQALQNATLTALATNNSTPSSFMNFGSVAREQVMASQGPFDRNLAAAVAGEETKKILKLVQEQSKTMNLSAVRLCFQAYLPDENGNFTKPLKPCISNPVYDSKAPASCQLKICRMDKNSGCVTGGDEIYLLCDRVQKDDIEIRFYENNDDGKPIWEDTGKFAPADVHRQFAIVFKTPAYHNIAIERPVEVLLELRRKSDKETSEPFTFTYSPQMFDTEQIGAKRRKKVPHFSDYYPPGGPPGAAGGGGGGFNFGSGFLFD
EXPERIMENTAL PROTOCOL: protein-binding microarray (PBM); PBM: ~300 nM protein, 6 mM HEPES pH 7.8, 80 mM KCl, 0.5 mM EDTA, 0.5 mM EGTA, 6% glycerol, 35 ng/ul poly-dIdC, 1% milk, 1 h, room temperature; high values mean tight binding
TEST SETTINGS: dsDNA, one strand shown
PROPERTY: binding signal (z-score)
Express your answer in z-score, writing the number without its unit.

Observe how each entry below is paired with its result.
# binding signal (sequence: `CCGATTAACATCAGTATTTCCCATGATGTTAATCGGGTCTTGATTCGCTTGACGCTGCTG` ) is 3.01

Entry `CCGATTAACATCAGGGGAAACCCTGATGTTAATCGGGTCTTGATTCGCTTGACGCTGCTG` ; binding signal = 10.2

binding signal reading for `CCGATTAACATCAAAAATCCCAATGATGTTAATCGGGTCTTGATTCGCTTGACGCTGCTG` : 2.79

Summary for this sequence, `CCGATTAACATCAGGGTTTTTTATGATGTTAATCGGGTCTTGATTCGCTTGACGCTGCTG` : binding signal is 4.39

Form field binding signal, entry `CCGATTAACATCAGGTATCCCCATGATGTTAATCGGGTCTTGATTCGCTTGACGCTGCTG` : 5.17

Per the records, this sequence ( `CCGATTAACATCAGGGGGAACTATGATGTTAATCGGGTCTTGATTCGCTTGACGCTGCTG` ) has binding signal equal to 6.91

The recorded binding signal for `CCGATTAACATCAGGTATTCCCATGATGTTAATCGGGTCTTGATTCGCTTGACGCTGCTG` is 3.43

get_value(item= `CCGATTAACATCAGGAACCCCCCTGATGTTAATCGGGTCTTGATTCGCTTGACGCTGCTG` , readout=binding signal) returns 8.98

More entries:
The reported binding signal of the sequence `CCGATTAACATCAGGGGAGTACCTGATGTTAATCGGGTCTTGATTCGCTTGACGCTGCTG` was 7.52

----------
MEASURED TARGET: GST-Aq-NF-kB (Amphimedon queenslandica, UniProt A9Y5G7 2-389)
Sequence: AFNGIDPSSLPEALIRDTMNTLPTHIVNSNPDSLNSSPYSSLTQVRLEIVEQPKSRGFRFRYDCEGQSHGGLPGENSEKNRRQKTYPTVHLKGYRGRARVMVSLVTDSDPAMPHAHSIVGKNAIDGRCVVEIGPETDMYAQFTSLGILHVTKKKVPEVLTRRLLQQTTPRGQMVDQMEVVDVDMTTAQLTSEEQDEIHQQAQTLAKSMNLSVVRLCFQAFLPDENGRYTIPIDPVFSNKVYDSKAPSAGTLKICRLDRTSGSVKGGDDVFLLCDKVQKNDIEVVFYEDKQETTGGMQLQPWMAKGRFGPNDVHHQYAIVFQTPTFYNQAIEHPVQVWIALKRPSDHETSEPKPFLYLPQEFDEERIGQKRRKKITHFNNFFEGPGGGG
EXPERIMENTAL PROTOCOL: protein-binding microarray (PBM); PBM: ~300 nM protein, 6 mM HEPES pH 7.8, 80 mM KCl, 0.5 mM EDTA, 0.5 mM EGTA, 6% glycerol, 35 ng/ul poly-dIdC, 1% milk, 1 h, room temperature; Ap Aiptasia and Nv Nematostella (sea anemones) / Co Capsaspora / Aq Amphimedon (sponge) / Dm Drosophila / Hu human; RHD is the Rel homology domain; high values mean tight binding
TEST SETTINGS: dsDNA, one strand shown
PROPERTY: binding signal (z-score)
State the answer as a number, implicitly in z-score.

So, `CCGATTAACATCAATTCACCCCCTGATGTTAATCGGGTCTTGATTCGCTTGACGCTGCTG` ? Its binding signal was 4.11

Further cases:
Value of binding signal reported for the sequence `CCGATTAACATCAGGGATTTCCATGATGTTAATCGGGTCTTGATTCGCTTGACGCTGCTG` is 5.39

Lab book: binding signal of `CCGATTAACATCAATTTCCCGTATGATGTTAATCGGGTCTTGATTCGCTTGACGCTGCTG` noted as 3.17

According to the records, this sequence `CCGATTAACATCAGGACAGTCCATGATGTTAATCGGGTCTTGATTCGCTTGACGCTGCTG` displays binding signal of 1.46

Quick note, binding signal for `CCGATTAACATCAAAATTACCCCTGATGTTAATCGGGTCTTGATTCGCTTGACGCTGCTG` landed at 6.34

Record summary for `CCGATTAACATCAGGGAGATTTATGATGTTAATCGGGTCTTGATTCGCTTGACGCTGCTG` : reported binding signal = 5.99

Cited source: paper PMC5700166
